Tested on: ATP;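 note: ATP exposure 15 min at 22 °C before imaging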
protocolDescription: switch fluorescence ratio, 500 uM ATP over buffer (Cy3 cluster intensity, sum of 5 cycles each) (fold (ratio)); higher = stronger signal-on switching upon ATP binding; sequences stand for … in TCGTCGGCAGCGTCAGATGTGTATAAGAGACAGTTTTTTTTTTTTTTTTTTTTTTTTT…TC
experimentalSetup: aptamer strand: ATP DNA aptamer (quencher-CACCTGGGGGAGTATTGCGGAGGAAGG + anchor), 100 nM annealed; ATP concentration: 500 uM
For each entry below, report its switch fluorescence ratio value.
Reply: number alone, nothing else.

# input sequence: `CGAAGCTGGT` ; wanted: its switch fluorescence ratio
1.07

Similarly, `ATCCTCGGGA` ?
1.01

Similarly, `GGGAAACGGT` ?
1.03

Similarly, `TTCGGTTCGT` ?
0.98

Similarly, `GGGGTGGTAG` ?
1.01

Similarly, `GTTGTAAGAT` ?
0.981

Similarly, `ACTGTTTTGC` ?
0.999

Similarly, `CCATATCGTG` ?
0.988

Similarly, `TTTTACCGTT` ?
1.02

Similarly, `CGACATGGTG` ?
1.07

Similarly, `GACAAAGGAC` ?
1.47

Similarly, `GTAGCGGCTG` ?
1.04

Similarly, `TGGAAGATGG` ?
1.01

Similarly, `GCCGAGGTGA` ?
1.09

---

Test system: ATP;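 note: ATP exposure 15 min at 22 °C before imaging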
protocolDescription: switch fluorescence ratio, 500 uM ATP over buffer (Cy3 cluster intensity, sum of 5 cycles each) (fold (ratio)); higher = stronger signal-on switching upon ATP binding; sequences stand for … in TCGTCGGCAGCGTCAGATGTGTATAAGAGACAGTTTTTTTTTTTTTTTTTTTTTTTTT…TC
experimentalSetup: aptamer strand: ATP DNA aptamer (quencher-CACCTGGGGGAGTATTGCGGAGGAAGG + anchor), 100 nM annealed; ATP concentration: 500 uM
For each entry below, report its switch fluorescence ratio value.
Reply: number alone, nothing else.

# input sequence: `GGGTAAATAG` ; wanted: its switch fluorescence ratio
1.03

Similarly, `CATCTTAGTG` ?
1.02

Similarly, `GGTGTAAGAA` ?
1

Similarly, `AAGAATGCGG` ?
0.988

Similarly, `ATTATCGGTA` ?
0.974

Similarly, `GGAAAAAGAT` ?
1.04

Similarly, `CGGGGTTGTG` ?
0.966

Similarly, `CACTGGACGG` ?
1.28

Similarly, `ACTTATTCGG` ?
1.02

Similarly, `ATCGGAAAGC` ?
1.07

Similarly, `ATGGGGTAAC` ?
0.969

Similarly, `CAGGCAGTAA` ?
1.18

Similarly, `GCCATTAAAC` ?
0.972

Similarly, `TGTAAGAGCG` ?
0.993

Similarly, `AGTAGGGTTG` ?
0.957

Similarly, `GTGTGGGAGT` ?
0.996

Similarly, `TACTTATCTG` ?
1.01

Similarly, `TATTTTTAGT` ?
1

Similarly, `TTCGTTCGGG` ?
0.992

Similarly, `CAGAACGTTG` ?
0.983

Similarly, `ATTTTTGATC` ?
1.02

Similarly, `TTCTGTGGGT` ?
0.955

Similarly, `AAACTAGCTG` ?
1

Similarly, `TCTATAAGGT` ?
0.99

Similarly, `GTGGATAAGA` ?
1

Similarly, `CAGAAGCGAT` ?
1.33

Similarly, `CAAAGGGGCG` ?
0.975

Similarly, `CGGAAAGACG` ?
1.05

Similarly, `CGTAGTGGCT` ?
1.04

Similarly, `TGTAAGTATT` ?
1.02

Similarly, `TAAATTAGCC` ?
1.03

Similarly, `GGGTCGGTTT` ?
1.01

Similarly, `GGGTTTTAGC` ?
1.03

Similarly, `TTTTACCCGT` ?
1.01

Similarly, `CGGCTCTCTT` ?
1.01

Similarly, `GCGGGAAACT` ?
1.05

Similarly, `TTTTGCTTTT` ?
0.998

Similarly, `AAGAGGTTGC` ?
0.99

Similarly, `TTTCCCTTCT` ?
1.05

Similarly, `AATAGGGTTA` ?
1

Similarly, `TTTCACAGGA` ?
1.03

Similarly, `ATTGGGGTTT` ?
1

Similarly, `ATACGGTAGG` ?
1.01

Similarly, `GATGTCTGTT` ?
0.955

Similarly, `GCACCTGGGC` ?
0.991

Similarly, `AGTGGGTAGA` ?
1.04

Similarly, `AGTAGTTGGG` ?
0.967

Similarly, `AGGGTATGGG` ?
1.03

Similarly, `ACAGCTTTGA` ?
0.985

Similarly, `GTCCGGCAAT` ?
2.04

Similarly, `GGTGATGCGC` ?
0.978

Similarly, `GGAACCAGGC` ?
1.12

Similarly, `CGTACGTGGC` ?
1.12

Similarly, `GAGGTGGGGG` ?
0.993

Similarly, `GGGCGTTGTG` ?
1.05

Similarly, `TGGCGCCATT` ?
1

Similarly, `TTTGAAGGAT` ?
1.29

Similarly, `GGAACTGTCT` ?
1.01

Similarly, `TTCGAGAGTA` ?
1.05

Similarly, `GATGTGTAGA` ?
0.999

Similarly, `TTTGGTCATA` ?
0.983

Similarly, `GGGACCAATT` ?
1

Similarly, `CACTACGAAT` ?
1.05

Similarly, `TAAATAATTT` ?
1.01

Similarly, `TGATTTTGTC` ?
0.993

Similarly, `TCTGATTATG` ?
0.987

Similarly, `GGTTGATAAT` ?
1

Similarly, `GAGGGGCGAC` ?
0.974

Similarly, `GATTGTGTG` ?
0.998

Similarly, `TTTGGTTAGT` ?
0.991

Similarly, `GGGTCGCCAT` ?
1

Similarly, `ACGGAAGGGT` ?
1.04

Similarly, `GCTGAGTAAC` ?
0.99

Similarly, `GGTGTCTTCA` ?
1.06

Similarly, `TCGGGAGGGT` ?
1.02

Similarly, `GGGAAGTATA` ?
1

Similarly, `CTGGCATTTC` ?
1.37

Similarly, `AACAACCGGT` ?
0.961

Similarly, `TGGGTACGCT` ?
1.01

Similarly, `GCATTTTGTT` ?
0.986

Similarly, `CTAATGGGTT` ?
0.98

Similarly, `GAAGAGTCGT` ?
0.992

Similarly, `ATTGGGCAGG` ?
1.04

Similarly, `CATGGCCTCT` ?
0.987

---

System: ATP;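 note: ATP exposure 15 min at 22 °C before imaging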
protocolDescription: switch fluorescence ratio, 500 uM ATP over buffer (Cy3 cluster intensity, sum of 5 cycles each) (fold (ratio)); higher = stronger signal-on switching upon ATP binding; sequences stand for … in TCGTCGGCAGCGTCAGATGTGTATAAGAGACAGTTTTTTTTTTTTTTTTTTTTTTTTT…TC
experimentalSetup: aptamer strand: ATP DNA aptamer (quencher-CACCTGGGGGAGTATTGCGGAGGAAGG + anchor), 100 nM annealed; ATP concentration: 500 uM
For each entry below, report its switch fluorescence ratio value.

# input sequence: `TGTTATATTG` ; wanted: its switch fluorescence ratio
1

Similarly, `CATAGGATTG` ?
1.02

Similarly, `CGGGGAGTGG` ?
0.973

Similarly, `TTTTTTTACT` ?
1.02

Similarly, `GGTTGAGGGG` ?
0.985

Similarly, `GTGGTTTGGA` ?
0.989

Similarly, `TTGCCAGGGA` ?
0.995

Similarly, `TGGGGGGCGT` ?
1.01

Similarly, `GGGAGTCGGG` ?
1.01

Similarly, `TTTGTGTTGT` ?
1.01

Similarly, `GGATCTTAGT` ?
0.996

Similarly, `TTTAGCCTCG` ?
0.992

Similarly, `TGTGTGGGTC` ?
0.991

Similarly, `AAAAGGGGTC` ?
0.996

Similarly, `GGGGGTGATC` ?
0.979

Similarly, `AGGGACTTGG` ?
1

---

For each entry below, report its switch fluorescence ratio value.
Tested on: ATP;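 note: ATP exposure 15 min at 22 °C before imaging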
protocolDescription: switch fluorescence ratio, 500 uM ATP over buffer (Cy3 cluster intensity, sum of 5 cycles each) (fold (ratio)); higher = stronger signal-on switching upon ATP binding; sequences stand for … in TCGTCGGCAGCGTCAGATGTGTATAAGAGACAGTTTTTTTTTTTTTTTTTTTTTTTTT…TC
experimentalSetup: aptamer strand: ATP DNA aptamer (quencher-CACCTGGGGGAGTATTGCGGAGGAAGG + anchor), 100 nM annealed; ATP concentration: 500 uM

# input sequence: `CCCAATTTGC` ; wanted: its switch fluorescence ratio
1.32

Similarly, `TTTGAGGACT` ?
0.992

Similarly, `TAAGCGGAAT` ?
1.03

Similarly, `AGAGTTAACG` ?
0.972

Similarly, `TTCAAGTGTA` ?
1.01

Similarly, `ACACAGGGTC` ?
1.07

Similarly, `CTGACGGATT` ?
1.2

Similarly, `GATGTCCCAG` ?
1

Similarly, `CAAGTATGGG` ?
0.974

Similarly, `TGGGGACTTG` ?
0.978

Similarly, `TGCTAGTACC` ?
1.05

Similarly, `ACGGCAAGGG` ?
1.15

Similarly, `CGGGAGGCCT` ?
1.01

Similarly, `ATTTGAATTA` ?
1.01

Similarly, `AAGGTGATAG` ?
1

Similarly, `GGATTCATGG` ?
1.01

Similarly, `TTTTCTTTGC` ?
1.03

Similarly, `GTTAGCGCTT` ?
0.974

Similarly, `GAATGATGGC` ?
0.939

Similarly, `ATAGAGGTGA` ?
1.02

Similarly, `TCGAAAGTGT` ?
1

Similarly, `CCAGATTTGT` ?
1.01

Similarly, `GATGCGTGGC` ?
0.998

Similarly, `GAGATCGAGG` ?
1.03

Similarly, `GGGATTTTCC` ?
0.979

Similarly, `ATGTTTGATG` ?
0.998

Similarly, `TTTTGAGATA` ?
0.975

Similarly, `GGACTATGCT` ?
0.962

Similarly, `CGCGGATGGG` ?
1.05

Similarly, `TATCTAAATA` ?
1.01

Similarly, `ACTTGCGGCT` ?
1

Similarly, `TATGGTATCT` ?
0.994

Similarly, `GCCGAAAATA` ?
0.988

Similarly, `TAATTAACTT` ?
1.09

Similarly, `AATTGTTGTG` ?
1

Similarly, `CGTTATTGAA` ?
0.983

Similarly, `ATGTGGACTG` ?
1.05

Similarly, `AATCGAAAGA` ?
1.02

Similarly, `TTTGGTTGAC` ?
1.02

Similarly, `GCAATTGCCT` ?
0.989

Similarly, `TCTTACGCCA` ?
1.06

Similarly, `ACCAAGTTTT` ?
1.02

Similarly, `GGGCAGATGG` ?
0.988

Similarly, `GGTTTTGAGA` ?
1.02

Similarly, `GCAAGGCGGA` ?
1.03

Similarly, `AGTAATTTTA` ?
1.04

Similarly, `TTAATAATAA` ?
1

Similarly, `CGGGTTAGCC` ?
0.998

Similarly, `TAGCCAAGTC` ?
1.02

Similarly, `ATTTTTTGAG` ?
1

Similarly, `TAGGGTAGGT` ?
0.974

Similarly, `CACAACACTC` ?
1.37

Similarly, `TTTCTGTGGA` ?
0.989

Similarly, `AGGCTTTCTC` ?
1.14

Similarly, `AGCAGGCGAA` ?
1.01

Similarly, `TGTTACTCGT` ?
1.03

Similarly, `CCAGGGGCTT` ?
1.31

Similarly, `TGGCGCCGGT` ?
0.995

Similarly, `TCCAATTTGA` ?
0.998

Similarly, `TTATGAGGAC` ?
1.03

Similarly, `AGAAGAGGTG` ?
1.07

Similarly, `CGATGGGGGA` ?
1.02

Similarly, `TCCCCGGGCA` ?
0.995

Similarly, `TTGTAATGGG` ?
0.988

Similarly, `TTTGCTGCGG` ?
1.03

Similarly, `TTGTGTTGGT` ?
0.999

Similarly, `ACGGTTGTGC` ?
1.01

Similarly, `TGTATTTGGC` ?
0.914

Similarly, `AGGGCAACCG` ?
1.04

Similarly, `TTTCGGGACC` ?
1.04

Similarly, `GCTGAGAATG` ?
0.999

Similarly, `TTTTGTTTTC` ?
1.11

Similarly, `GTTAATTTTT` ?
1.01

Similarly, `CGTTAAGGGT` ?
0.98

Similarly, `GCACTCGGGA` ?
1.03

Similarly, `TTATTATAGA` ?
0.998

Similarly, `AGCCTTTGTC` ?
0.982

FYI, the data here is from the supplement of paper PMC10126150.
